Provenance of the data: ChEMBL document CHEMBL1151291

# Test system: Vesicular stomatitis virus
# TEST DESCRIPTION: Antiviral activity against VSV infected in BHK cells assessed as inhibition of plaque formation
# Type: functional, organism-based
OBSERVED PROPERTY: log10(IC50) (log10 of the value in nM)
On a log10 scale: recorded IC50, unit nM.

Look over these answered cases.
1. COc1cc([C@@H]2c3cc4c(cc3[C@@H](OC(C)=O)[C@H]3CSC(=O)[C@H]23)OCO4)cc(OC)c1OC [EPIPODOPHYLLOTOXIN ACETATE] ... 2.34
2. COc1cc([C@@H]2c3cc4c(c(OC)c3C[C@H]3COC(=O)[C@@H]32)OCO4)cc(OC)c1OC ... 1.36
3. COc1cc([C@@H]2c3cc4c(cc3[C@H](O)[C@H]3COC(=O)[C@H]23)OCO4)cc(OC)c1O ... 2.40
4. COc1cc([C@@H]2c3cc4c(cc3C=C3COC(=O)[C@H]32)OCO4)cc(OC)c1OC ... 2.40
5. COc1cc([C@@H]2c3cc4c(cc3C[C@H]3COC(=O)[C@H]32)OCO4)cc(OC)c1OC ... 3.30

Record COc1cc([C@@H]2c3cc4c(cc3[C@@H](OC)[C@H]3COC(=O)[C@H]23)OCO4)cc(OC)c1OC . Reported log10(IC50): 2.95

* * *

Would you mind telling me the reported selectivity ratio of each entry?
# TEST DESCRIPTION: Therapeutic index, ratio of MTC for human primary amnion cells to lowest drug level causing inhibition of HSV1
# EXPERIMENTAL CONTEXT: read-out: TI
Give bare numbers.

1. COc1cc([C@@H]2c3cc4c(cc3[C@@H](O)[C@H]3COC(=O)[C@H]23)OCO4)cc(OC)c1OC [EPIPODOPHYLLOTOXIN] ... 15
2. COc1cc([C@@H]2c3cc4c(cc3[C@H](O)[C@H]3COC(=O)[C@@H]23)OCO4)cc(OC)c1OC ... 75
3. COc1cc([C@@H]2c3cc4c(cc3C[C@H]3CC(=O)C[C@@H]32)OCO4)cc(OC)c1OC ... 2.5

Could you report selectivity ratio for every entry in the following list?
1. COc1cc([C@@H]2c3cc4c(cc3[C@@H](O)[C@H]3COC(=O)[C@H]23)OCO4)cc(OC)c1O [4'-DEMETHYLEPIPODOPHYLLOTOXIN]
2. COc1cc([C@@H]2c3cc4c(c(O)c3C[C@H]3COC(=O)[C@@H]32)OCO4)cc(OC)c1OC
3. COc1cc([C@@H]2c3cc4c(cc3C[C@H]3COC(=O)[C@@H]32)OCO4)cc(OC)c1OC

stdout:
[1, 333, 667]

Could you report selectivity ratio for every entry in the following list?
1. COc1cc([C@@H]2c3cc4c(cc3C[C@H]3CSC(=O)[C@@H]32)OCO4)cc(OC)c1OC [DEOXYPODOPHYLLOTOXIN CYCLIC SULFIDE]
2. COc1cc([C@@H]2c3cc4c(c(O[C@@H]5O[C@H](CO)[C@@H](O)[C@H](O)[C@H]5O)c3C[C@H]3COC(=O)[C@@H]32)OCO4)cc(OC)c1OC
3. COc1cc([C@@H]2c3cc4c(c(O)c3C[C@H]3COC(=O)[C@@H]32)OCO4)cc(OC)c1O
4. COc1cc([C@@H]2c3cc4c(cc3[C@H](O)[C@H]3COC(=O)[C@H]23)OCO4)cc(OC)c1OC
5. COc1cc([C@@H]2c3cc4c(cc3[C@H](O)[C@H]3COC(=O)[C@H]23)OCO4)cc(OC)c1O
6. COc1cc([C@@H]2c3cc4c(cc3[C@H](O)[C@H]3COC[C@H]23)OCO4)cc(OC)c1OC [ANHYDROPODOPHYLLOL]

stdout:
3
3
4000
6000
250
800

Record COc1cc([C@@H]2c3cc4c(cc3[C@@H](O[C@@H]3O[C@@H]5CO[C@@H](C)O[C@H]5[C@H](O)[C@H]3O)[C@H]3COC(=O)[C@H]23)OCO4)cc(OC)c1O [ETOPOSIDE] . Reported selectivity ratio: 1.2
